- experiment-description: self-splicing fitness, log relative to wild type (ln ratio); higher = more splicing; Tetrahymena group I intron in knt gene, E. coli kanamycin selection, DiMSum; sequences stand for … in CUCUCU…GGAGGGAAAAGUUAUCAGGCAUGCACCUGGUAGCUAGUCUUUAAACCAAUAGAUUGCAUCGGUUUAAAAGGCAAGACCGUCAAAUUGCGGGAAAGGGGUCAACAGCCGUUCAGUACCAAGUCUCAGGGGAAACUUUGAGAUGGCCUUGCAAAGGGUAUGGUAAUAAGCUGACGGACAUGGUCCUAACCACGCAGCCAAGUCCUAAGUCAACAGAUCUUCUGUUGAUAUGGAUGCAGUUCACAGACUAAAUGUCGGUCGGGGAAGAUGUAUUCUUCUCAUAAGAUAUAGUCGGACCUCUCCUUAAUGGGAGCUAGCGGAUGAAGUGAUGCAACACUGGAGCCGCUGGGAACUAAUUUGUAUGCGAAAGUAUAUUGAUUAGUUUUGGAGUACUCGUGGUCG;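 note: selection with 25 µg/mL kanamycin versus none on LB agar overnight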
- assay-context: 37 °C
Each record's self-splicing fitness (ln) is compared with low-valued = under -2, mid-valued = from -2 up to -0.9, high-valued = -0.9 and over to give its class.

Prompt: Lab log: ACGAAGCAAUAUUACGAGAG — assign self-splicing fitness (ln) category
Completion: low-valued

Prompt: Lab log: CCACAGCAAUAUUACGCGGC — assign self-splicing fitness (ln) category
Completion: low-valued

Prompt: Lab log: CCGUAGCAAUAUUACGAAGA — assign self-splicing fitness (ln) category
Completion: low-valued

Prompt: Lab log: CGUUAGCAAUAUUACGAGAA — assign self-splicing fitness (ln) category
Completion: mid-valued

Prompt: Lab log: ACUGAGCAAUAUUACGCUCG — assign self-splicing fitness (ln) category
Completion: mid-valued

Prompt: Lab log: CGAUAGCAAUAUUACGGAAG — assign self-splicing fitness (ln) category
Completion: high-valued

Prompt: Lab log: UGAUAGCAAUAUUACGGCUU — assign self-splicing fitness (ln) category
Completion: high-valued

Prompt: Lab log: UGGAAGCAAUAUUACGACCG — assign self-splicing fitness (ln) category
Completion: high-valued

Prompt: Lab log: UGCGAGCAAUAUUACGGGUG — assign self-splicing fitness (ln) category
Completion: mid-valued

Prompt: Lab log: ACUGAGCAAUAUUACGUCCU — assign self-splicing fitness (ln) category
Completion: high-valued

Prompt: Lab log: UGACAGCAAUAUUACGUCCU — assign self-splicing fitness (ln) category
Completion: high-valued

Prompt: Lab log: AACGAGCAAUAUUACGCGCG — assign self-splicing fitness (ln) category
Completion: mid-valued

Prompt: Lab log: AGCUAGCAAUAUUACGUAUC — assign self-splicing fitness (ln) category
Completion: low-valued

Prompt: Lab log: UGGAAGCAAUAUUACGUAUA — assign self-splicing fitness (ln) category
Completion: mid-valued

Prompt: Lab log: UCCUAGCAAUAUUACGGGAA — assign self-splicing fitness (ln) category
Completion: mid-valued

Prompt: Lab log: AGCUAGCAAUAUUACGAAGC — assign self-splicing fitness (ln) category
Completion: low-valued

Prompt: Lab log: CUUUAGCAAUAUUACGAAAC — assign self-splicing fitness (ln) category
Completion: mid-valued

Prompt: Lab log: UUUAAGCAAUAUUACGUACA — assign self-splicing fitness (ln) category
Completion: high-valued

Prompt: Lab log: CGACAGCAAUAUUACGACGC — assign self-splicing fitness (ln) category
Completion: high-valued
